# Test system: Monocotyledonous and dicotyledonous test plants
# Procedure Text: Herbicidal action, application pre-emergence (Example B1)
# Assay type: in vivo
# Set-up: key: 10=total damage to plant; 0=no damage to plant
# Condition: Agrostis-tenius, 1000 g/ha, evaluated after 9 or 13 days
Readout Name: AGSTE herbicidal action (damage score 0-10)
Keep it simple and answer with nothing but the number.

Ask | Any idea what its AGSTE herbicidal action (damage score 0-10) is? The compound is Cc1nn(C)nc1CSC1=NOC(C)(C)C1F (stereo not shown) [Compound No. 7.01]
Reply | 10

Ask | Query (compound): Cn1nc(C(F)(F)F)c(C[S+]([O-])C2=NOC(C)(C)C2F)c1OCC(F)(F)F (single isomer, unassigned) [2.10] ; field requested: AGSTE herbicidal action (damage score 0-10)
Reply | 10

Ask | Fill in the blank: the reported AGSTE herbicidal action (damage score 0-10) of CC1(C)ON=C(SCc2nn(CC3CCC3)nc2C(F)(F)F)C1F (stereo not shown) [Compound No. 7.15] is ____.
Reply | 8

Ask | Consider the compound Cn1nc(C(F)(F)F)c(C[S+]([O-])C2=NOC(C)(C)C2(Cl)Cl)c1OCC(F)(F)F (stereo not shown) [2.20] and give its measured AGSTE herbicidal action (damage score 0-10).
Reply | 5
